Quick list: IC50 per entry.
- TEST_SYSTEM: FGFR4 (Homo sapiens)
- Sequence (P22455 22-802): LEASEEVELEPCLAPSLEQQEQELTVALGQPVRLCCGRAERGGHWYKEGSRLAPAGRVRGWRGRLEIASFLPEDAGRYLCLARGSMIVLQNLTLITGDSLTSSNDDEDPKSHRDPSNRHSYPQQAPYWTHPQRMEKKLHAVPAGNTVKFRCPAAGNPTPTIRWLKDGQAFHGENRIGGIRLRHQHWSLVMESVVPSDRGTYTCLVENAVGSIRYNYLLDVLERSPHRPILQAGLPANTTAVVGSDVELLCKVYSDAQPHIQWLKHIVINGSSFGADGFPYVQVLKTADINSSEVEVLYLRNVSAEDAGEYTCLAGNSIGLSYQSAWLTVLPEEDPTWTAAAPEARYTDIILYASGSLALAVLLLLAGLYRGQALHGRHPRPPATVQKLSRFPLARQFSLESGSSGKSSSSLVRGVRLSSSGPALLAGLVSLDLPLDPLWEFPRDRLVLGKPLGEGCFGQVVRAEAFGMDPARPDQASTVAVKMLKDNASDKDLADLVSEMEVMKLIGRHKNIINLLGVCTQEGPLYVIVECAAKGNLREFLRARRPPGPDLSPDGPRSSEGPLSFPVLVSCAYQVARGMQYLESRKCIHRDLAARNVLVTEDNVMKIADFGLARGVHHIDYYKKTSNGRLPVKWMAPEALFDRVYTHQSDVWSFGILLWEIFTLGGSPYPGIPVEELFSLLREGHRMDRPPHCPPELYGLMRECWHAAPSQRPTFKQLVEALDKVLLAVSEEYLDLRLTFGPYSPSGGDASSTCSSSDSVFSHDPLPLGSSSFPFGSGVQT
Expressed in nM, but write only the number.

Below: 6 compounds and their reported IC50.
C=CC(=O)N[C@H]1CCOC[C@H]1Nc1ncc2cc(-c3c(F)c(OC)cc(OC)c3F)nc(N3CCOCC3)c2n1 [Example 789] :: 7.8
[2H]C([2H])([2H])Oc1cc(OC([2H])([2H])[2H])c(Cl)c(-c2cc3cnc(N[C@@H]4COC[C@@H]4NC(=O)C=C)nc3c(OCC)n2)c1Cl [Example 754] :: 13.6
C=CC(=O)N[C@H]1CCOC[C@H]1Nc1ncc2cc(-c3c(F)c(OC)cc(OC)c3F)nc(NC)c2n1 [Example 786] :: 17
C=CC(=O)N[C@H]1COC[C@H]1Nc1ncc2cc(-c3c(F)c(OC)cc(OC)c3F)nc(N3CC(C)(O)C3)c2n1 [Example 773] :: 1.8
C=CC(=O)N[C@H]1COC[C@H]1Nc1ncc2cc(-c3c(F)c(OC)cc(OC)c3F)nc(N3CCC(OC)CC3)c2n1 [Example 694] :: 4.8
C=CC(=O)N[C@H]1COC[C@H]1Nc1ncc2cc(-c3cc(OC)cc(OC)c3Cl)nc(-c3cnn(C)c3)c2n1 [Example 761] :: 14.3

# query: IC50 of entry C=CC(=O)N[C@H]1COC[C@H]1Nc1ncc2cc(-c3c(F)c(OC)cc(OC)c3F)nc(NCC)c2n1 [Example 767]
7
